# target-under-test: T1, B Lymphocyte Stimulator, soluble form (human) (human, UniProt Q9Y275 134-285, biotinylated with NHS-biotin where used as biotinylated B Lymphocyte Stimulator)
# T1 construct: Coated on plastic, captured on streptavidin plates, amine-coupled to a CM5 chip or free in solution, depending on the assay; also called BLyS; immobilized B Lymphocyte Stimulator
# test-description: phage competition ELISA
readout-kind: binding result

{"binder": "I006D07 (scFv) scFv: EVQLVESGGGVVQPGGSLRLSCAASGFTVNSYAMHWVRQAPGKGLQWVAVIPYDGSKKYYADSVKGRFTVSRDNSKNTLYLQMNSLRAEDTAVYYCARSHYDILTGLNYWYFDLWGRGTLVTVSSGGGGSGGGGSGGGGSSELTQDPAVSVALGQTVRITCQGDSLRSYYASWYQQKPGQAPVLVIYGKNNRPSGIPDRFSGSSSGNTASLTITGAQAEDEADYYCNSRGSSGNHVVFGGGTKLTVLG", "test-value": "binds"}
{"binder": "I008A09 (scFv) scFv: GVQLVQSGGGVVQPGGSLRLSCAASGFTFSSYGMHWVRQAPGKGLEWVAVISYDGSNKYYADSVKGRFTISRDNSKNTLYLQMNSLRAEDTAVYYCARDREAYYDILTGYYLYYYYMDVWGRGTTVTVSSGGGGSGGGGSGGGGSQSVLTQPASVSGSPGQSITISCTGTSSDVGGYNYVSWYQQHPGKAPKLMIYEGSKRPSGVSNRFSGSKSGNTASLTISGLQAEDEADYYCSSYTTGSTRVFGGGTKLTVLG", "test-value": "binds"}
{"binder": "I018H08 (scFv, also called 1018H08) scFv: QVQLQQSGAEVKKPGASVNVSCKASGYTFTKYTMHWVRQAPGQGPEWMGWINGGSGDTKYSRKFQGRVTITKDTSASAAYMELSSLGSEDTALYYCARATYDPLTGYSFDGFDIWGQGTMVTVSSGGGGSGGGGSGGGGSQSVLTQPASVSGSPGQSITISCTGTSSDVGGYNYVSWYQQHPGKAPKLMIYEGSKRPSGVSNRFSGSKSGNTASLTISGLQAEDEADYYCSSYTTRSTRVFGGGTKLTILG", "test-value": "binds"}
